src = ChEMBL document CHEMBL1153665

# reported pIC50; entries follow
Target: Polyunsaturated fatty acid 5-lipoxygenase (Rattus norvegicus, UniProt P12527)
Sequence (P12527 whole entry): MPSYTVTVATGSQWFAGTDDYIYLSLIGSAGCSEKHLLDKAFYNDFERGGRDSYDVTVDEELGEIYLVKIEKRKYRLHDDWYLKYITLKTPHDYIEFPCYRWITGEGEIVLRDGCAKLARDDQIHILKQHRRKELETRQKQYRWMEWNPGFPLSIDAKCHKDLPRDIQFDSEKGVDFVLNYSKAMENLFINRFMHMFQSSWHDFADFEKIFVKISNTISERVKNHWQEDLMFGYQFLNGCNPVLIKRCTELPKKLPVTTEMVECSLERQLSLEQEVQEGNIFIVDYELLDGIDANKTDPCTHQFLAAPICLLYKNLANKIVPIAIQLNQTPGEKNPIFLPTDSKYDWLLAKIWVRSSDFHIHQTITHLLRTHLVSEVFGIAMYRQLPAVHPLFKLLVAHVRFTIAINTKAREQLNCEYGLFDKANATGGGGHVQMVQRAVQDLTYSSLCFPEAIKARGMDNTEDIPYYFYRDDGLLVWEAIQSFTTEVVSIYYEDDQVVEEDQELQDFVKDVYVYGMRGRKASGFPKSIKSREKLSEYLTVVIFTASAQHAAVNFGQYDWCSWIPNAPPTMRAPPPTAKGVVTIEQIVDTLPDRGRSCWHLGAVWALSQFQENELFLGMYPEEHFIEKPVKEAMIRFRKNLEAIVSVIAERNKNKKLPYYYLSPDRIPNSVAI
pIC50: −log10 of the molar value.
reported_property: pIC50

> print(dat)
                                   compound  numeric.result
1  CC1Cc2c(OCc3ccc4ccccc4n3)ccc3c2c(c(CC(C)(C)C(=O)O)n3Cc2ccc(Cl)cc2)S1 (centres undefined)            6.52
2  CC1Cc2c(OCc3ccc(-c4ccccc4)cn3)ccc3c2c(c(CC(C)(C)C(=O)O)n3Cc2ccc(Cl)cc2)S1 (single isomer, unassigned; (+))            6.82
3  CC1Cc2c(OCc3ccc(-c4ccccc4)cn3)ccc3c2c(c(CC(C)(C)C(=O)O)n3Cc2ccc(Cl)cc2)S1 (single isomer, unassigned; (-))            7.40
4  Cc1c(CC(C)(C)C(=O)O)n(Cc2ccc(Cl)cc2)c2ccc(OCc3ccc(-c4ccccc4)cn3)cc12            6.15

----------
system: Rattus norvegicus; test: Time to reach maximum concentration following oral administration of 200 mg/kg in rat; value ranges from 2-4; type: ADME, organism-based; design: dose 200 mg/kg, route oral; conditions: in vivo
reported_property: T max

> print(dat)
                                   molecule  result
1  CC1Cc2c(OCc3ccc(-c4ccccc4)cn3)ccc3c2c(c(CC(C)(C)C(=O)O)n3Cc2ccc(Cl)cc2)S1 (racemic)     2 h

----------
Notes on pIC50 obtained with Arachidonate 5-lipoxygenase-activating protein (Homo sapiens).
Sequence (P20292 whole entry): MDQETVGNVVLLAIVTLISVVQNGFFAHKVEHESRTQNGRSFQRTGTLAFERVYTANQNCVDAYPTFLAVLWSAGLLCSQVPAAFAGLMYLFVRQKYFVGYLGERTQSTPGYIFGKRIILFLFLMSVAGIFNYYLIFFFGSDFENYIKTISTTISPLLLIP
pIC50: −log10 of the molar value.
reported_property: pIC50

> print(dat)
                                   compound  comparator  numeric.result
1  CC1Cc2c(OCc3ccc(-c4ccccc4)cn3)ccc3c2c(c(CC(C)(C)C(=O)O)n3Cc2ccc(Cl)cc2)S1 (single isomer, unassigned; (+))           <            5.00
2  CC(C)(C)Sc1c(CC(C)(C)C(=O)O)n(Cc2ccc(Cl)cc2)c2ccc(OCc3ccc4ccccc4n3)cc12           =            8.64
3  CC1Cc2c(OCc3ccc(-c4ccccc4)cn3)ccc3c2c(c(CC(C)(C)C(=O)O)n3Cc2ccc(Cl)cc2)S1 (racemic)           =            4.66
4  Cc1c(CC(C)(C)C(=O)O)n(Cc2ccc(Cl)cc2)c2ccc(OCc3ccc(-c4ccccc4)cn3)cc12           =            8.03
5  Cc1c(CC(C)(C)C(=O)O)n(Cc2ccc(Cl)cc2)c2ccc(OCc3ccc4ccccc4n3)cc12           =            8.55

----------
test: Maximum plasma concentration in rats when a oral dose of 200 mg/kg was given; type: ADME, organism-based; set-up: dose 200 mg/kg, route oral; settings: rat
reported_property: Cmax (µM)

> print(dat)
                                   molecule  reported.property  numeric.result
1  CC1Cc2c(OCc3ccc(-c4ccccc4)cn3)ccc3c2c(c(CC(C)(C)C(=O)O)n3Cc2ccc(Cl)cc2)S1 (racemic)               Cmax               5
